Assay: Ratio of drug level in liver to plasma in Sprague-Dawley rat at 2 mg/kg, iv after 6 hrs
Type: ADME, organism-based
Parameters: dose 2 mg/kg, route intravenous
observation-type: Kp at 6 h
Answer as a number with no unit attached.

q: For the molecule shown here, COc1ccc2c(O[C@@H]3C[C@H]4C(=O)N[C@]5(C(=O)NS(=O)(=O)C6CC6)C[C@H]5/C=C\CCCCN(C)C(=O)[C@@H]4C3)cc(-c3nc(C(C)C)cs3)nc2c1C [SIMEPREVIR] , give the reported Kp at 6 h.
a: 63.5

----------
Let's look at some compounds and their measured microsomal CLint.
Assay: Metabolic stability in human liver microsomes assessed as intrinsic clearance
Type: ADME, Microsome
Answer in µL/min/mg, number only, no unit symbol.

# molecule-smiles, microsomal CLint [µL/min/mg]
data = [
    ("COc1ccc2c(O[C@@H]3C[C@H]4C(=O)N[C@]5(C(=O)NS(=O)(=O)C6CC6)C[C@H]5/C=C\\CCCCN(C)C(=O)[C@@H]4C3)cc(-c3nc(C(C)C)cs3)nc2c1Cl", 9),
    ("COc1ccc2c(O[C@@H]3C[C@H]4C(=O)N[C@]5(C(=O)NS(=O)(=O)C6CC6)C[C@H]5/C=C\\CCCCN(C)C(=O)[C@@H]4C3)cc(-c3nc(C(C)C)cs3)nc2c1", 16),
    ("COc1ccc2c(O[C@@H]3C[C@H]4C(=O)N[C@]5(C(=O)NS(=O)(=O)C6CC6)C[C@H]5/C=C\\CCCCN(C)C(=O)[C@@H]4C3)cc(-c3nccs3)nc2c1", 38),
]

q: For the compound shown here, COc1ccc2c(O[C@@H]3C[C@H]4C(=O)N[C@]5(C(=O)NS(=O)(=O)C6CC6)C[C@H]5/C=C\CCCCN(C)C(=O)[C@@H]4C3)cc(-c3csc(NC(C)C)n3)nc2c1 , give the reported microsomal CLint.
a: 15

----------
Assay: Metabolic stability in human liver microsomes assessed as intrinsic clearance
Type: ADME, Microsome
Let's look at some molecules and their measured microsomal CLint.

# molecule, observation-type, endpoint-value
rows = [
    ("COc1ccc2c(O[C@@H]3C[C@H]4C(=O)N[C@]5(C(=O)NS(=O)(=O)C6CC6)C[C@H]5/C=C\\CCCCN(C)C(=O)[C@@H]4C3)cc(-c3ccccc3)nc2c1", "microsomal CLint", "46 µL/min/mg"),
    ("COc1ccc2c(O[C@@H]3C[C@H]4C(=O)N[C@]5(C(=O)NS(=O)(=O)C6CC6)C[C@H]5/C=C\\CCCCN(C)C(=O)[C@@H]4C3)cc(-n3ccc(C(C)C)n3)nc2c1C", "microsomal CLint", "< 6 µL/min/mg"),
]

Now consider a different molecule.
q: For the molecule shown here, COc1ccc2c(O[C@@H]3C[C@H]4C(=O)N[C@]5(C(=O)NS(=O)(=O)C6CC6)C[C@H]5/C=C\CCCCN(C)C(=O)[C@@H]4C3)cc(-c3nc(C(C)C)cs3)nc2c1C [SIMEPREVIR] , give the reported microsomal CLint.
a: < 6 µL/min/mg

----------
Let's look at some compounds and their measured AUC.
Assay: AUC in Sprague-Dawley rat at 10 mg/kg, po
Format: ADME, organism-based
Parameters: dose 10 mg/kg, route oral
Details: plasma
Kindly format the answer as number then unit.

Sample answers from the record:
# molecule-smiles, endpoint-value
rows = [
    ("COc1ccc2c(O[C@@H]3C[C@H]4C(=O)N[C@]5(C(=O)NS(=O)(=O)C6CC6)C[C@H]5/C=C\\CCCCN(C)C(=O)[C@@H]4C3)cc(-c3nc(C(C)C)cs3)nc2c1C", "2.79 µM·h"),
    ("COc1ccc2c(O[C@@H]3C[C@H]4C(=O)N[C@]5(C(=O)NS(=O)(=O)C6CC6)C[C@H]5/C=C\\CCCCN(C)C(=O)[C@@H]4C3)cc(-n3ccc(C(C)C)n3)nc2c1C", "1.3 µM·h"),
]

Now consider a different compound.
q: For the compound shown here, COc1ccc2c(O[C@@H]3C[C@H]4C(=O)N[C@]5(C(=O)NS(=O)(=O)C6CC6)C[C@H]5/C=C\CCCCN(C)C(=O)[C@@H]4C3)cc(-c3cccc(C(C)C)n3)nc2c1C , give the reported AUC.
a: 1.4 µM·h

----------
Test: Ratio of drug level in liver to plasma in Sprague-Dawley rat at 10 mg/kg, po after 6 hrs
Format: ADME, organism-based
Design: dose 10 mg/kg, route oral
observation-type: Kp at 6 h
Answer as a number with no unit attached.

q: For the molecule shown here, COc1ccc2c(O[C@@H]3C[C@H]4C(=O)N[C@]5(C(=O)NS(=O)(=O)C6CC6)C[C@H]5/C=C\CCCCN(C)C(=O)[C@@H]4C3)cc(-c3nc(C(C)C)cs3)nc2c1C , give the reported Kp at 6 h.
a: 32

----------
Assay: Ratio of drug level in liver to plasma in Sprague-Dawley rat at 10 mg/kg, po after 8 hrs
Format: ADME, organism-based
Design: dose 10 mg/kg, route oral
observation-type: Kp at 8 h
Answer as a number with no unit attached.

q: For the compound shown here, COc1ccc2c(O[C@@H]3C[C@H]4C(=O)N[C@]5(C(=O)NS(=O)(=O)C6CC6)C[C@H]5/C=C\CCCCN(C)C(=O)[C@@H]4C3)cc(-n3ccc(C(C)C)n3)nc2c1C , give the reported Kp at 8 h.
a: 44

----------
Assay: Inhibition of recombinant full length HCV NS3/4A protease
Set-up: species or system Hepacivirus hominis
pKi: −log10 of the molar value.
Cut-off 9 on pKi, inclusive. At or above means yes; below means no.

# molecule-smiles, qualitative-label
records = [
    ("COc1ccc2c(O[C@@H]3C[C@H]4C(=O)N[C@]5(C(=O)NS(=O)(=O)C6CC6)C[C@H]5/C=C\\CCCCN(C)C(=O)[C@@H]4C3)cc(-c3nc(C(C)C)cs3)nc2c1C", "yes"),
    ("COc1ccc2c(O[C@@H]3C[C@H]4C(=O)N[C@]5(C(=O)NS(=O)(=O)C6CC6)C[C@H]5/C=C\\CCCCN(C)C(=O)[C@@H]4C3)cc(-c3cccc(C(C)C)n3)nc2c1C", "yes"),
]

q: // inclusive: pKi at least 9? input: COc1ccc2c(O[C@@H]3C[C@H]4C(=O)N[C@]5(C(=O)NS(=O)(=O)C6CC6)C[C@H]5/C=C\CCCCN(C)C(=O)[C@@H]4C3)cc(-c3ccccc3)nc2c1
a: yes

q: // inclusive: pKi at least 9? input: COc1ccc2c(O[C@@H]3C[C@H]4C(=O)N[C@]5(C(=O)NS(=O)(=O)C6CC6)C[C@H]5/C=C\CCCCN(C)C(=O)[C@@H]4C3)cc(-n3ccc(C(C)C)n3)nc2c1C
a: yes

q: // inclusive: pKi at least 9? input: COc1ccc2c(O[C@@H]3C[C@H]4C(=O)N[C@]5(C(=O)NS(=O)(=O)C6CC6)C[C@H]5/C=C\CCCCN(C)C(=O)[C@@H]4C3)cc(-c3nc(C(C)C)cs3)nc2c1Cl
a: yes

q: // inclusive: pKi at least 9? input: CCc1c(OC)ccc2c(O[C@@H]3C[C@H]4C(=O)N[C@]5(C(=O)NS(=O)(=O)C6CC6)C[C@H]5/C=C\CCCCN(C)C(=O)[C@@H]4C3)cc(-c3nc(C(C)C)cs3)nc12
a: no

q: // inclusive: pKi at least 9? input: C=C[C@@H]1C[C@]1(NC(=O)[C@@H]1C[C@@H](Oc2cc(-c3ccccc3)nc3cc(OC)ccc23)C[C@H]1C(=O)N[C@H](C(=O)N[C@H](C(=O)NC)C1CCCCC1)C(C)(C)C)C(=O)O
a: no

q: // inclusive: pKi at least 9? input: COc1ccc2c(O[C@@H]3C[C@H]4C(=O)N[C@]5(C(=O)NS(=O)(=O)C6CC6)C[C@H]5/C=C\CCCCN(C)C(=O)[C@@H]4C3)cc(-c3nccs3)nc2c1
a: yes

----------
Assay: Tmax in Sprague-Dawley rat at 10 mg/kg, po
Type: ADME, organism-based
Parameters: dose 10 mg/kg, route oral
Conditions: in vivo
Let's look at some compounds and their measured Tmax.
Kindly format the answer as number then unit.

Sample answers from the record:
# molecule-smiles, endpoint-value
data = [
    ("COc1ccc2c(O[C@@H]3C[C@H]4C(=O)N[C@]5(C(=O)NS(=O)(=O)C6CC6)C[C@H]5/C=C\\CCCCN(C)C(=O)[C@@H]4C3)cc(-n3ccc(C(C)C)n3)nc2c1C", "1.5 h"),
    ("COc1ccc2c(O[C@@H]3C[C@H]4C(=O)N[C@]5(C(=O)NS(=O)(=O)C6CC6)C[C@H]5/C=C\\CCCCN(C)C(=O)[C@@H]4C3)cc(-c3nc(C(C)C)cs3)nc2c1C", "3 h"),
]

Now consider a different compound.
q: For the compound shown here, COc1ccc2c(O[C@@H]3C[C@H]4C(=O)N[C@]5(C(=O)NS(=O)(=O)C6CC6)C[C@H]5/C=C\CCCCN(C)C(=O)[C@@H]4C3)cc(-c3cccc(C(C)C)n3)nc2c1C , give the reported Tmax.
a: 2 h
